# Tested on: NIH3T3
# assay_procedure: Cytotoxic Profiling of Annotated Libraries Using Quantitative High-Throughput Screening (AID 1296008); further: nearly all actives have a fitted effect of over 60% in size
# test_context: Five cell lines viability, CellTiter-Glo ATP luminescence, 48-72 h
Inconclusive results are not listed. The source made the active and inactive calls. The call rests on the fitted dose curve; in most records, active means well fitted inhibition curve with a large enough effect; inconclusive means small, poorly fitted or top-dose-only effect; inactive means flat fitted curve, though single readings scatter.
Bench note: report the call from 1 (yes) = active, 0 (no) = inactive

Observe how each entry below is paired with its result.
compound	cat
COc1ccc(CCO[C@@H]2CCCC[C@H]2N2CC[C@@H](O)C2)cc1OC	0 (no)
C#CCN(Cc1cc2c(=O)[nH]c(C)nc2cc1Br)c1ccc(C(=O)NCc2cccnc2)cc1	1 (yes)
NC[C@@](O)(c1ccc(Cl)cc1)c1ccc(-c2cn[nH]c2)cc1	1 (yes)
CN(C)CCCCC(=O)Nc1ccc(NC(=S)NC(=O)c2ccc(C(C)(C)C)cc2)cc1	1 (yes)
Cn1nnc(-c2ccc(-c3ccc(N4C[C@H](CO)OC4=O)cc3F)cn2)n1	0 (no)
CN(C)C/C=C/C(=O)Nc1cccc(C(=O)Nc2cccc(Nc3ncc(Cl)c(-c4c[nH]c5ccccc45)n3)c2)c1	1 (yes)

Ask | Could you check what this test reported for `Cc1ncc(CCCN(C)C)cc1Nc1ncc2c(n1)-c1ccc(C(F)(F)F)cc1NC(=S)C2` ?
Reply | 1 (yes)

Ask | Which outcome did this test record for the compound COc1ccc(C2(O)c3ccccc3NC(=O)C2O)cc1 (centres undefined) ?
Reply | 0 (no)

Ask | Status in this test for `COc1c/c(=C2\C=c3ccccc3=N2)[nH]/c1=C\c1[nH]c(C)cc1C` ?
Reply | 1 (yes)

Ask | Dear colleague, could you share the recorded outcome for COC1=CC(=O)CC(C)C12Oc1cc(OC)cc(O)c1C2=O (centres undefined) when you have a moment?
Reply | 0 (no)

Ask | Which result was noted for this compound in the test: `CC[C@H](C)[C@H](NC(=O)[C@H]([C@@H](C)CC)N(C)C(C)=O)C(=O)N[C@H](C(=O)N[C@@H](CC(C)C)C(=O)[C@@]1(C)CO1)[C@@H](C)O`
Reply | 1 (yes)

---

# Tested on: HEK293T
# assay_procedure: qHTS assay to identify novel small-molecules to repurpose for Merkel cell carcinoma treatment (AID 1296009); further: nearly all actives have a fitted effect of over 60% in size
# test_context: MCC and control cell lines, CellTiter-Glo viability, 72 h; at 44.8 µM (top of the series) unless noted
Results filed as inconclusive are left out. The source made the active and inactive calls. Calls come from the whole dose curve; as a rule, active = well fitted inhibition curve with a large enough effect; inconclusive = small, poorly fitted or top-dose-only effect; inactive = flat fitted curve, though single readings scatter.
recorded_metric: outcome

molecule	outcome
O=C(O)CC(=O)OC[C@H]1O[C@@H](Oc2ccc3c(c2)OC[C@H]2c4cc5c(cc4O[C@@H]32)OCO5)[C@H](O)[C@@H](O)[C@@H]1O	inactive [at 17.4 µM]
COC1/C=C/C(C)(O)C(SCC(N)C(=O)O)CC(=O)OC(C)C(C)CC/C=C/1C (stereo not drawn)	inactive [at 17.4 µM]
O=C(/C=C/c1ccccc1)OC[C@]12O[C@H]1[C@@H](O)[C@@H]1C=CO[C@@H](O[C@@H]3O[C@H](CO)[C@@H](O)[C@H](O)[C@H]3O)[C@@H]12	inactive [at 17.4 µM]
c1ccc(-c2csc(N3CCOCC3)n2)cc1	inactive
COC(=O)CC(C)(O)CC(=O)OCc1ccc(O[C@@H]2O[C@H](CO)[C@@H](O)[C@H](O)[C@H]2O)cc1 (stereo partly drawn)	inactive [at 17.4 µM]
Nc1nc(-n2cc(C(=O)O)c(=O)c3cc(F)c(N4CC(O)C4)c(Cl)c32)c(F)cc1F	inactive

Now for the molecule whose outcome we want.
molecule `COc1ccc(CN2C(=O)C(=O)c3cc(S(=O)(=O)N4CCC[C@H]4COc4cccnc4)ccc32)cc1` , outcome observed: inactive

---

# Test system: JEG-3
# assay_procedure: Primary qHTS to identify gynecologic anti-cancer compounds using libraries of approved drugs and bioactive compounds (AID 1345084); further: on the % scale 0 is the no-effect control and ±100 the full control effect; nearly all actives have a fitted effect of over 55% in size
# test_context: Gynecologic cancer cell panel viability, ATPlite luminescence, 48 h; series mostly up to 57.5 µM
Inconclusive results are not listed. Calls of active or inactive are those of the source. The call rests on the fitted dose curve; in most records, active means well fitted cell-killing curve with a large enough effect; inconclusive means small, poorly fitted or top-dose-only effect, or effect the other way; inactive means flat fitted curve, though single readings scatter.

molecule	activity change, negative = cytotoxicity
CN[C@H](CC(C)C)C(=O)N[C@H]1C(=O)N[C@@H](CC(N)=O)C(=O)N[C@H]2C(=O)N[C@H]3C(=O)N[C@H](C(=O)N[C@H](C(=O)O)c4cc(O)cc(O)c4-c4cc3ccc4O)[C@H](O[C@H]3C[C@](C)(N)[C@@H](O)[C@H](C)O3)c3ccc(c(Cl)c3)Oc3cc2cc(c3O[C@@H]2O[C@H](CO)[C@@H](O)[C@H](O)[C@H]2O[C@H]2C[C@](C)(NCc3ccc(-c4ccc(Cl)cc4)cc3)[C@@H](O)[C@H](C)O2)Oc2ccc(cc2Cl)[C@H]1O	inactive
C[C@@H]1CC[C@]2(C(=O)O[C@@H]3O[C@H](CO)[C@@H](O)[C@H](O)[C@H]3O)CC[C@]3(C)C(=CCC4[C@@]5(C)C[C@@H](O)[C@H](O)[C@@](C)(C(=O)O[C@H]6[C@H](O)C[C@@]7(C)C(CC[C@]8(C)C7CC=C7[C@H]9[C@](C(=O)O[C@@H]%10O[C@H](CO)[C@@H](O)[C@H](O)[C@H]%10O)(CC[C@@H](C)[C@@]9(C)O)CC[C@]78C)[C@@]6(CO)C(=O)O)C5CC[C@]43C)[C@@H]2[C@]1(C)O (some centres undefined)	-2.9% [at 6.55 µM] (inactive)
COc1cc(O)c([C@@H](CC(=O)N2CC(C)CC(C)C2)c2ccc3c(c2)OCO3)c(OC)c1 (some centres undefined)	inactive
CC1=C2C[C@H]3O[C@@]3(C)CCC3O[C@@]3(C)C[C@@]2(O)OC1=O (some centres undefined)	inactive

---

# assay_procedure: Primary qHTS for inhibitors of nuclear receptor binding SET domain protein 2 (NSD2) in an isogenic RCH-ACV NSD2 p.E1099K mutant (9B) (AID 1645876); further: nearly all actives have a fitted effect of over 70% in size; further: potency means the concentration at half of the fitted maximal effect
# test_context: RCH-ACV (leukaemia line) NSD2 E1099K (9B) viability, CellTiter-Glo, 72 h; series mostly up to 44.9 µM
Records with an inconclusive call do not appear. The source made the active and inactive calls. Calls follow the shape of the dose curve; as a rule, active = well fitted inhibition curve with a large enough effect; inconclusive = small, poorly fitted or top-dose-only effect; inactive = flat fitted curve, though single readings scatter.
recorded_metric: Potency

Some entries whose results are on file:
compound	obs_value
OC[C@H]1O[C@@H](OCCc2ccccc2)[C@H](O[C@@H]2OC[C@](O)(CO)[C@H]2O)[C@@H](O)[C@@H]1O	inactive
COc1ccc([C@H]2CNC(=O)C2)cc1OC1CCCC1	inactive
CC(C)CN(C[C@@H](O)[C@H](Cc1ccccc1)NC(=O)O[C@@H]1CO[C@H]2OCC[C@H]21)S(=O)(=O)c1ccc(N)cc1	inactive
C=C1C(=O)OC2C1CCC(=C)C1CC(OC(C)=O)C(=C)C12 (centres undefined)	10.3 µM (active)
CC(C)c1cc(C(=O)N2CC[C@@H](NC(=O)C3CC3)C2)n[nH]1	inactive
CC(=O)OC[C@]12[C@H](OC(C)=O)C(=O)[C@@H]3[C@@H](OC(C)=O)[C@@]14O[C@@]3(C)COC(=O)c1cccnc1[C@@H](C)[C@H](C)C(=O)O[C@@H]([C@H](O)[C@@H]2OC(C)=O)[C@]4(C)O	inactive
Nc1nc(-n2cc(C(=O)O)c(=O)c3cc(F)c(N4CC(O)C4)c(Cl)c32)c(F)cc1F	inactive
COc1cc2c(cc1OC)N1C(=O)C[C@]34C=CCN5CC[C@@H]2[C@@H](CC3)[C@]514	inactive
Cc1cc(O)cc(O[C@@H]2O[C@H](CO)[C@@H](O)[C@H](O)[C@H]2O)c1	inactive
OC/C=C/C=C/[C@H]1Cc2cc(O)cc(O)c2O1	inactive

In plain terms, `C=C1C(=O)O[C@@H]2/C=C(\C)C(=O)/C=C/[C@](C)(O)C[C@@H](OC(=O)C(C)C)[C@@H]12` has a documented Potency of 0.401 µM (active)

GET /value?item= CC1(O)CCCC2(C)C1CCC13CC(CO)C(CCC12)C3 (centres undefined) &field=Potency returns inactive

Measured Potency of `CC(=O)c1c(O)cc(O[C@@H]2O[C@H](CO)[C@@H](O)[C@H](O)[C@H]2O)cc1O` : inactive

The reported Potency of the compound `C[C@H](O)[C@H](O)/C=C/c1cccc(O)c1CO` was inactive

---

# assay_procedure: Primary fluorescence-based thiol-reactive (MSTI) qHTS assay for identification of artifact compounds. (AID 1845221); further: nearly all actives have a fitted effect of over 65% in size
# test_context: MSTI thiol-reactivity probe, 1 h; series mostly up to 53.8 µM
Inconclusive results are not listed. Active and inactive are the calls of the source. The call rests on the fitted dose curve; in most records, active means well fitted inhibition curve with a large enough effect; inconclusive means small, poorly fitted or top-dose-only effect; inactive means no such curve, though single readings can be large or run the other way.
Outcomes you can answer with include only these: yes (1) = active, no (0) = inactive

Some entries whose results are on file:
compound	cat
Cc1c[nH]c2nccc(Oc3c(F)cc(Nc4cc(Cl)nc(N)n4)cc3F)c12	no (0)
CCOC(=O)Nc1cc(-c2ccc(C)c(NS(C)(=O)=O)c2)nn2c(C)nnc12	no (0)
COc1cc2c(cc1OC)CC(=O)N(CCCNC[C@H]1Cc3cc(OC)c(OC)cc31)CC2	no (0)
CC1(C)CCCC2(C)C1C(O)C=C(CO)C2(O)CO (configuration not stated)	no (0)
CC1=CC(=O)C2C(C)(C)CCC[C@]2(C)[C@H]1CO (some centres not stated)	no (0)

Ask | Per the assay record, what outcome was assigned to `COc1ncc(Nc2ncc([C@H](C)N3CCN(S(C)(=O)=O)CC3)cc2-c2nc(C)nc(N)n2)cc1F` ?
Reply | no (0)

Ask | // return assay outcome for `O=C(O)COCCN1CCN([C@H](c2ccccc2)c2ccc(Cl)cc2)CC1`
Reply | no (0)

Ask | I would be grateful if you could indicate the recorded call for `C=C[C@@H]1[C@H](O[C@@H]2O[C@H](CO)[C@@H](O)[C@H](O)[C@H]2O)OC=C(C(=O)O)[C@H]1CCOC(=O)/C=C/c1ccc(O)c(O)c1` .
Reply | yes (1)

Ask | // return assay outcome for Cc1ccc(C(=O)N(CCCN)C(c2nc3cc(Cl)ccc3c(=O)n2Cc2ccccc2)C(C)C)cc1 (configuration not stated)
Reply | no (0)

Ask | What did this assay record as the result for CC(C)=CCC[C@](C)(O[C@@H]1O[C@H](CO)[C@@H](O)[C@H](O)[C@H]1O)[C@H]1CC[C@]2(C)[C@@H]1[C@H](O)CC1[C@@]3(C)CC[C@H](O)C(C)(C)C3[C@@H](O[C@@H]3O[C@H](CO)[C@@H](O)[C@H](O)[C@H]3O)C[C@]12C (some centres not stated) ?
Reply | no (0)

Ask | Just curious, what result did `Cc1noc(-c2ccc(-c3ccc(CC(=O)O)cc3)cc2)c1NC(=O)O[C@H](C)c1ccccc1` get here?
Reply | no (0)

Ask | How was `Cc1ccc(S(=O)(=O)Cc2nc(-c3ccc(C(=O)NCc4cccnc4)cc3)oc2C)cc1` classified in this test?
Reply | no (0)

Ask | I'd appreciate the recorded outcome for `COC(=O)N1CCC(n2ncc3c(N4CCOCC4)nc(-c4ccc(NC(=O)Nc5ccc(CO)cc5)cc4)nc32)CC1` from this test.
Reply | no (0)

Ask | Hi, sorry to bother you, what did the test record for `COc1ccc(C2=N[C@@H](c3ccc(Cl)cc3)[C@@H](c3ccc(Cl)cc3)N2C(=O)N2CCNC(=O)C2)c(OC(C)C)c1` ?
Reply | no (0)

Ask | For `COC(=O)c1c(C)cc(OC(=O)c2c(C)cc(OC)cc2OC)cc1O[C@@H]1O[C@H](CO)[C@@H](O)[C@H](O)[C@H]1O` , what call appears in the results of this test?
Reply | no (0)

Ask | What call does the record list for CC1(C)CCCC2(C)C(C(=O)O)=CCC12 (configuration not stated) ?
Reply | no (0)

Ask | Identify the outcome logged in this assay for the compound shown: OCC1OC(Oc2cc(O)cc(/C=C/c3ccc(O)cc3)c2)C(O)C(O)C1O (configuration not stated)
Reply | yes (1)
